biological target: HLA-A*23:01; test: IEDB peptide-MHC binding, purified MHC/competitive/radioactivity; filed as Kd, often an IC50 or EC50 that approximates it; bounds were set here for any values at or beyond the usual limits of such assays; conditions: source organism: Mammarenavirus juninense
readoutLabel: Kd (nM)
// units = nM; emit number, no label

Request: Fill in: Kd of LYTVKYPNL is ___
Response: 230

###

biological target: HLA-A*26:01; assay: IEDB peptide-MHC binding, purified MHC/competitive/radioactivity; filed as Kd, often an IC50 or EC50 that approximates it; bounds were set here for any values at or beyond the usual limits of such assays; settings: source organism: Dengue virus 3 Singapore/8120/1995
readoutLabel: Kd (nM)
// units = nM; emit number, no label

Request: Fill in: Kd of MIAGVLFTF is ___
Response: 1230
